Molecular target: T1, ZFP SBS#261 (synthetic)
T1 chain: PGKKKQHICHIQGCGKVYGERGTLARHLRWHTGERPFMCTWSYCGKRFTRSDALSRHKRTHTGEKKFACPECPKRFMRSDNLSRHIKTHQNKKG
Experiment: EMSA
Details: tags: MBP fusion
reported endpoint: Kd (pM)
Just the number please, in pM, no unit attached.

Return Kd (reported value) for this binder: GAGGTGGCC (dsDNA) DNA 1: GAGGTGGCC DNA 2: GGCCACCTC
500

All figures here come from patent US20030068675.
